Some compounds, each annotated with its measured viability, T/C.
# System: 556581-035-R-J1 tumor spheroid viability, % test/control
# experiment description: Anticancer human tumor 556581-035-R-J1 patient-derived ovarian carcinoma cell line growth inhibition
# measurement parameters: second compound 31.6 µM; first compound 3.16 µM; stronger effect = lower value; spheroids with HUVEC and MSC

compound | viability, T/C (%)
CC1COCCN1c1cc(-c2ccnn2C)c2ccnc(-c3ccn[nH]3)c2n1 (stereo unspecified) + Cn1nnc2c(C(N)=O)ncn2c1=O | 39.1
Cc1cc(C)c(CNC(=O)c2cc(-c3ccc(CN4CCOCC4)cc3)cc3c2cnn3C2CCCC2)c(=O)[nH]1 + Cn1nnc2c(C(N)=O)ncn2c1=O | 110
[2H]c1nc(C)nc([2H])c1-c1cc(NC[C@@H](C)c2cccc3c(C(=O)NC)ccnc23)ncn1 + Cn1nnc2c(C(N)=O)ncn2c1=O | 116
COc1cc(C)[nH]c(=O)c1CN1CCc2c(Cl)cc(C(OC)C3COC3)c(Cl)c2C1=O (stereo unspecified) + Cn1nnc2c(C(N)=O)ncn2c1=O | 108
CC(C)n1c(=O)n(C)c2cnc3cc(F)c(-c4ccc(OCCCN5CCCCC5)nc4)cc3c21 + Cn1nnc2c(C(N)=O)ncn2c1=O | 92.7
COc1ccc([C@@H](O)c2cc(-c3ncnc4cc(N5CCOCC5)ccc34)c(F)cc2Cl)nn1 + Cn1nnc2c(C(N)=O)ncn2c1=O | 48.5

###

# Test system: 556581-035-R-J1 tumor spheroid viability, % test/control
# experiment description: Anticancer human tumor 556581-035-R-J1 cell line growth inhibition;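 also: spheroids exposed to compounds for 7 days before viability read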
# measurement parameters: second compound 0.003 µM; first compound 3 µM; stronger effect = lower value; spheroids with HUVEC and MSC

molecule | measurement unit | viability, T/C
O=C(c1cc(Cc2n[nH]c(=O)c3ccccc23)ccc1F)N1CCN(C(=O)C2CC2)CC1 + CC[C@@]1(O)C(=O)OCc2c1cc1n(c2=O)Cc2cc3c(CN(C)C)c(O)ccc3nc2-1 | % | 95.4
Cn1ncnc1[C@H]1c2n[nH]c(=O)c3cc(F)cc(c23)N[C@@H]1c1ccc(F)cc1 + CC[C@@]1(O)C(=O)OCc2c1cc1n(c2=O)Cc2cc3c(CN(C)C)c(O)ccc3nc2-1 | % | 57.1
Cc1sc2c(c1C)C(c1ccc(Cl)cc1)=NC(CC(=O)Nc1ccc(O)cc1)c1nnc(C)n1-2 (stereo not drawn) + CC[C@@]1(O)C(=O)OCc2c1cc1n(c2=O)Cc2cc3c(CN(C)C)c(O)ccc3nc2-1 | % | 74.2

###

Let's look at some compounds and their measured viability, T/C.
# Tested on: 556581-035-R-J1 tumor spheroid viability, % test/control
# experiment description: Anticancer human tumor 556581-035-R-J1 cell line growth inhibition;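 also: spheroids exposed to compounds for 7 days before viability read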
# measurement parameters: second compound 3.16 µM; first compound 3 µM; stronger effect = lower value; spheroids with HUVEC and MSC
# Method: Multicellular complex tumor spheroid response to DNA repair inhibitors in combination with DNA-damaging drugs This study explores the anticancer activities of DNA-damaging drugs and inhibitors of DNA damage repair, both as single agents and in combinations. […] Twenty-six patient-derived or established malignant cell lines were evaluated representing sarcoma, melanoma, small cell lung cancer (SCLC), non-small cell lung cancer (NSCLC), as well as bladder, ovarian and pancreatic cancers. […]
readout type: viability, T/C (%)

compound | readout type | measurement unit | measured number
Cc1sc2c(c1C)C(c1ccc(Cl)cc1)=NC(CC(=O)Nc1ccc(O)cc1)c1nnc(C)n1-2 (centres undefined) + Cn1nnc2c(C(N)=O)ncn2c1=O | viability, T/C | % | 61.2
CNCc1ccc(-c2cc(-c3nc(-c4ccc(S(=O)(=O)C(C)C)cc4)cnc3N)on2)cc1 + Cn1nnc2c(C(N)=O)ncn2c1=O | viability, T/C | % | 20
Cn1ncnc1[C@H]1c2n[nH]c(=O)c3cc(F)cc(c23)N[C@@H]1c1ccc(F)cc1 + Cn1nnc2c(C(N)=O)ncn2c1=O | viability, T/C | % | 50.2
O=C(c1cc(Cc2n[nH]c(=O)c3ccccc23)ccc1F)N1CCN(C(=O)C2CC2)CC1 + Cn1nnc2c(C(N)=O)ncn2c1=O | viability, T/C | % | 89.9

###

Measured viability, T/C accompanies every entry in the list below.
# Tested on: 556581-035-R-J1 tumor spheroid viability, % test/control
# experiment description: Anticancer human tumor 556581-035-R-J1 cell line growth inhibition;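 also: spheroids exposed to compounds for 7 days before viability read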
# measurement parameters: second compound 31.6 µM; first compound 10 µM; stronger effect = lower value; spheroids with HUVEC and MSC
readout type: viability, T/C (%)

molecule | readout type | measurement unit | measured number
COc1cc(C)[nH]c(=O)c1CN1CCc2c(Cl)cc(C(OC)C3COC3)c(Cl)c2C1=O (stereo unspecified) + Cn1nnc2c(C(N)=O)ncn2c1=O | viability, T/C | % | 108
Cc1cc(C)c(CNC(=O)c2cc(-c3ccc(CN4CCOCC4)cc3)cc3c2cnn3C2CCCC2)c(=O)[nH]1 + Cn1nnc2c(C(N)=O)ncn2c1=O | viability, T/C | % | 86.1
CC1COCCN1c1cc(-c2ccnn2C)c2ccnc(-c3ccn[nH]3)c2n1 (stereo unspecified) + Cn1nnc2c(C(N)=O)ncn2c1=O | viability, T/C | % | 33.4
CC(C)n1c(=O)n(C)c2cnc3cc(F)c(-c4ccc(OCCCN5CCCCC5)nc4)cc3c21 + Cn1nnc2c(C(N)=O)ncn2c1=O | viability, T/C | % | 65.8
COc1ccc([C@@H](O)c2cc(-c3ncnc4cc(N5CCOCC5)ccc34)c(F)cc2Cl)nn1 + Cn1nnc2c(C(N)=O)ncn2c1=O | viability, T/C | % | 36.2
[2H]c1nc(C)nc([2H])c1-c1cc(NC[C@@H](C)c2cccc3c(C(=O)NC)ccnc23)ncn1 + Cn1nnc2c(C(N)=O)ncn2c1=O | viability, T/C | % | 112

###

viability, T/C values, listed per item
# System: 556581-035-R-J1 tumor spheroid viability, % test/control
# experiment description: Anticancer human tumor 556581-035-R-J1 cell line growth inhibition;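 also: spheroids exposed to compounds for 7 days before viability read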
# measurement parameters: second compound 0.0949 µM; first compound 3.16 µM; stronger effect = lower value; spheroids with HUVEC and MSC

molecule | viability, T/C [%]
CC(C)n1c(=O)n(C)c2cnc3cc(F)c(-c4ccc(OCCCN5CCCCC5)nc4)cc3c21 + CC[C@@]1(O)C(=O)OCc2c1cc1n(c2=O)Cc2cc3c(CN(C)C)c(O)ccc3nc2-1 | 50.3
CC1COCCN1c1cc(-c2ccnn2C)c2ccnc(-c3ccn[nH]3)c2n1 (stereo not drawn) + CC[C@@]1(O)C(=O)OCc2c1cc1n(c2=O)Cc2cc3c(CN(C)C)c(O)ccc3nc2-1 | 27.1
Cc1cc(C)c(CNC(=O)c2cc(-c3ccc(CN4CCOCC4)cc3)cc3c2cnn3C2CCCC2)c(=O)[nH]1 + CC[C@@]1(O)C(=O)OCc2c1cc1n(c2=O)Cc2cc3c(CN(C)C)c(O)ccc3nc2-1 | 53.5

###

# System: 556581-035-R-J1 tumor spheroid viability, % test/control
# experiment description: Anticancer human tumor 556581-035-R-J1 cell line growth inhibition; active = viability on the fitted dose curve at most 10% of control; inactive = the rest;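 also: spheroids exposed to compounds for 7 days before viability read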
# measurement parameters: second compound 0.3 µM; first compound 0.949 µM; spheroids with HUVEC and MSC
# Experimental: Multicellular complex tumor spheroid response to DNA repair inhibitors in combination with DNA-damaging drugs This study explores the anticancer activities of DNA-damaging drugs and inhibitors of DNA damage repair, both as single agents and in combinations. […] Twenty-six patient-derived or established malignant cell lines were evaluated representing sarcoma, melanoma, small cell lung cancer (SCLC), non-small cell lung cancer (NSCLC), as well as bladder, ovarian and pancreatic cancers. […]
Classes used: active, inactive

compound | class
Cn1ncnc1[C@H]1c2n[nH]c(=O)c3cc(F)cc(c23)N[C@@H]1c1ccc(F)cc1 + CC[C@@]1(O)C(=O)OCc2c1cc1n(c2=O)Cc2cc3c(CN(C)C)c(O)ccc3nc2-1 | active
O=C(c1cc(Cc2n[nH]c(=O)c3ccccc23)ccc1F)N1CCN(C(=O)C2CC2)CC1 + CC[C@@]1(O)C(=O)OCc2c1cc1n(c2=O)Cc2cc3c(CN(C)C)c(O)ccc3nc2-1 | inactive
Cc1sc2c(c1C)C(c1ccc(Cl)cc1)=NC(CC(=O)Nc1ccc(O)cc1)c1nnc(C)n1-2 (centres undefined) + CC[C@@]1(O)C(=O)OCc2c1cc1n(c2=O)Cc2cc3c(CN(C)C)c(O)ccc3nc2-1 | inactive
CNCc1ccc(-c2cc(-c3nc(-c4ccc(S(=O)(=O)C(C)C)cc4)cnc3N)on2)cc1 + CC[C@@]1(O)C(=O)OCc2c1cc1n(c2=O)Cc2cc3c(CN(C)C)c(O)ccc3nc2-1 | active

###

# reported IC50; entries follow
# System: 556581-035-R-J1 tumor spheroid viability, % test/control
# experiment description: Anticancer human tumor 556581-035-R-J1 cell line growth inhibition;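 also: spheroids exposed to compounds for 7 days before viability read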
# measurement parameters: curve of first compound; second compound 31.6 µM; spheroids with HUVEC and MSC
readout type: IC50 (nM)

molecule | readout type | measurement unit | inequality symbol | measured number
CNCc1ccc(-c2cc(-c3nc(-c4ccc(S(=O)(=O)C(C)C)cc4)cnc3N)on2)cc1 + Cn1nnc2c(C(N)=O)ncn2c1=O | IC50 | nM | = | 1380
COc1cc(C)[nH]c(=O)c1CN1CCc2c(Cl)cc(C(OC)C3COC3)c(Cl)c2C1=O (centres undefined) + Cn1nnc2c(C(N)=O)ncn2c1=O | IC50 | nM | > | 10000
CC1COCCN1c1cc(-c2ccnn2C)c2ccnc(-c3ccn[nH]3)c2n1 (centres undefined) + Cn1nnc2c(C(N)=O)ncn2c1=O | IC50 | nM | = | 604
COc1ccc([C@@H](O)c2cc(-c3ncnc4cc(N5CCOCC5)ccc34)c(F)cc2Cl)nn1 + Cn1nnc2c(C(N)=O)ncn2c1=O | IC50 | nM | = | 2810
